- TARGET: T1, Bdf1 bromodomain 1 (GST-tagged, WT) (Saccharomyces cerevisiae (strain ATCC …, UniProt P35817))
- T1 chain: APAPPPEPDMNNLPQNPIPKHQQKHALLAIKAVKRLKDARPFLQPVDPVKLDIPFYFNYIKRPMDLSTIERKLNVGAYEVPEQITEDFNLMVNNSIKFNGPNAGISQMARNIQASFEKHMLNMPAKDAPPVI
- TEST SUMMARY: histone peptide array probed with recombinant GST-bromodomain, signal normalised to myc peptide control
Non-standard residues stand in square brackets, D forms with d. No end group written: not given here. Arg(Me2a) = CN(C)C(=N)NCCC[C@H](N)C(=O)O; Lys(Me3) = C[N+](C)(C)CCCC[C@H](N)C(=O)O; Arg(Me2s) = CN=C(NC)NCCC[C@H](N)C(=O)O; Lys(Me) = CNCCCC[C@H](N)C(=O)O
EXPERIMENTAL READOUT: binding score

1. ARTKQTARKSTGGKAPRKQ (A R T Kme1 Q T A Rme2a Kac S T G G K A P R K Q)    0.0217

[A] ARTKQTARKSTGGKAPRKQ (A Rme2s T Kme3 Q T A Rme2a Kme3 S T G G K A P R K Q)
[B] A[Arg(Me2s)]T[Lys(Me3)]QTA[Arg(Me2a)][Lys(Me)]STGGKAPRKQ
(Q) Could you tell me which of A and B has the lower binding score reading? State the label of the item chosen.
(A) B
(B: 0, A: 0.00681)
